Biological target: Aromatase (Homo sapiens)
Assay: qHTS assay to identify aromatase inhibitors (AID 743083); further: nearly all actives have a fitted effect of over 55% in size
Conditions: MCF-7 aro ERE, testosterone-driven ERE luciferase, 24 h; series mostly up to 70.3 µM
Results filed as inconclusive are left out. The source made the active and inactive calls. The call rests on the fitted dose curve; in most records, active means well fitted inhibition curve with a large enough effect in the repeat runs; inconclusive means weak or mixed curves; inactive means no such curve, though single readings can be large or run the other way. Starred links: 1 amine or outer side, 2 acyl side, 3 side chain; linkers in the order of their positions; H or OH if unused. Positions of bridges follow the written chain, without caps; N, C: chain ends. Non-standard residues stand in square brackets, D forms with d. Residues, ends and D or L forms follow the SMILES beside them. *: point of attachment. X5 = NC1=N[C@@H]([C@H](N[*:1])C(=O)[*:2])C[C@H](O)N1; ΔAla(Z-3-ureido) = NC(=O)N/C=C(\N)C(=O)O; β3hOrn = NCCC[C@H](N)CC(=O)*; Dap = NC[C@H](N)C(=O)O
The reply should name one outcome from active, inactive

// below: answered compounds
CN1c2cc(O)c(N=NC(N)=O)cc2CC1S(=O)(=O)O (centres undefined); inactive
O=C(O)CC/C=C\CC[C@@H]1[C@@H](N2CCCCC2)[C@@H](O)C[C@@H]1OCc1ccc(-c2ccccc2)cc1; inactive
CCOC(=O)c1cc(-c2ccccc2)nc2ccc(C)cc12; inactive

Query: Outcome? NCCC[C@H](N)CC(=O)N[C@H]1CNC(=O)[C@H]([C@H]2C[C@H](O)NC(N)=N2)NC(=O)/C(=C/NC(N)=O)NC(=O)[C@H](CO)NC(=O)[C@H](CO)NC1=O (β3hOrn-[Dap]SS[ΔAla(Z-3-ureido)][X5]; lactam 1-C)
Reply: inactive

Query: Outcome? "CCOC(=O)c1c[nH]c2cc(OCC(C)C)c(OCC(C)C)cc2c1=O"
Reply: inactive

Query: Outcome? "CN(C)C=Nc1c(I)cc(I)c(CCC(=O)O)c1I"
Reply: inactive

Query: Outcome? "CN=C1C=CC(=C(c2ccc(N(C)C)cc2)c2ccc(N(C)C)cc2)C=C1"
Reply: active

Query: Outcome? "C=CCNC1=C2C[C@@H](C)C[C@H](OC)[C@H](O)[C@@H](C)/C=C(\C)[C@H](OC(N)=O)[C@@H](OC)/C=C\C=C(/C)C(=O)NC(=CC1=O)C2=O"
Reply: inactive

Query: Outcome? "CCCCC/C=C\C/C=C\C/C=C\CCCCC(=O)O"
Reply: inactive

###

Experiment: qHTS assay for small molecule agonists of the p53 signaling pathway - cell viability (AID 651633); further: nearly all actives have a fitted effect of over 30% in size
Settings: p53RE-bla HCT-116 viability, ATP luminescence, 16 h; series mostly up to 83.3 µM
Records with an inconclusive call do not appear. Active and inactive are the calls of the source. The call rests on the fitted dose curve.
The reply should name one outcome from t (active), f (inactive)

// below: answered compounds
CCOc1ccc(N=C(C)Nc2ccc(OCC)cc2)cc1; f
CCCC(=O)Nc1ncnc2c1ncn2[C@@H]1O[C@@H]2COP(=O)(O)O[C@H]2[C@H]1OC(=O)CCC; f
CC[C@@]1(O)C(=O)OCc2c1cc1n(c2=O)Cc2cc3c([N+](=O)[O-])cccc3nc2-1; t

Query: Outcome? "Cc1cc(/C=C/c2ccc3cc(N(C)C)ccc3[n+]2C)c(C)n1-c1ccccc1"
Reply: t

Query: Outcome? "Nc1ncnc(Nc2ccc(Cl)cc2)n1"
Reply: f

Query: Outcome? "CC[C@H](CC[C@@H](C)[C@H]1CC[C@H]2[C@@H]3CC=C4C[C@@H](O)CC[C@]4(C)[C@H]3CC[C@]12C)C(C)C"
Reply: f

Query: Outcome? "CC[C@@H]1/C=C(\C)C[C@H](C)C[C@H](OC)[C@H]2O[C@@](O)(C(=O)C(=O)N3CCCC[C@H]3C(=O)O[C@H](/C(C)=C/[C@@H]3CC[C@@H](Cl)[C@H](OC)C3)[C@H](C)[C@@H](O)CC1=O)[C@H](C)C[C@@H]2OC"
Reply: f

Query: Outcome? "C[C@H](O)[C@H](O)[C@H]1CNc2nc(N)[nH]c(=O)c2N1"
Reply: f

Query: Outcome? COc1ccc(CNCC(O)COc2ccc3[nH]c(=O)ccc3c2)cc1OC (centres undefined)
Reply: f

###

Experiment: qHTS assay for small molecules that induce genotoxicity in human embryonic kidney cells expressing luciferase-tagged ATAD5 (AID 651632); further: nearly all actives have a fitted effect of over 15% in size
Settings: HEK293T ATAD5-luciferase induction, 16 h; series mostly up to 83.3 µM
Records with an inconclusive call do not appear. Activity calls are given as the source filed them. The call rests on the fitted dose curve; in most records, active means well fitted activation curve with a large enough effect in the repeat runs; inconclusive means weak or mixed curves; inactive means no such curve, though single readings can be large or run the other way.
The reply should name one outcome from 1 (yes) (active), 0 (no) (inactive)

// below: answered compounds
CN1CCC(OC(=O)C(Oc2ccc(Cl)cc2)Oc2ccc(Cl)cc2)CC1; 0 (no)
N[C@@H](C(=O)N[C@@H]1C(=O)N2C(C(=O)O)=C(CSc3cn[nH]n3)CS[C@H]12)c1ccc(O)cc1; 0 (no)
COC(=O)[C@H]1[C@H]2C[C@@H]3c4[nH]c5cc(OC)ccc5c4CCN3C[C@H]2C[C@H](OC)[C@@H]1OC; 0 (no)

Query: Outcome? "COc1cc(-c2ccc(-[n+]3nc(-c4ccccc4)nn3-c3ccc([N+](=O)[O-])cc3)c(OC)c2)ccc1-[n+]1nc(-c2ccccc2)nn1-c1ccc([N+](=O)[O-])cc1"
Reply: 1 (yes)

Query: Outcome? CN1C(=O)CN2CCc3ccccc3C2c2cc(Cl)ccc21 (centres undefined)
Reply: 0 (no)

Query: Outcome? C[C@@H]1C[C@H]2C3C[C@H](F)C4=CC(=O)C=CC4(C)[C@@]3(F)[C@@H](O)CC2(C)[C@@]1(O)C(=O)COC(=O)C(C)(C)C (some centres undefined)
Reply: 0 (no)

Query: Outcome? "CCN(CC)CCOC(=O)c1ccc(N)cc1Cl"
Reply: 0 (no)

Query: Outcome? CCC(c1ccccc1)c1noc(CCN(CC)CC)n1 (centres undefined)
Reply: 0 (no)

Query: Outcome? Nc1c(Br)cc(Br)cc1CNC1CCC(O)CC1 (centres undefined)
Reply: 0 (no)

###

Experiment: qHTS assay to identify aromatase inhibitors - cell viability counter screen (AID 743084);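 further: cells stimulated with testosterone during compound exposure; nearly all actives have a fitted effect of over 55% in size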
Settings: MCF-7 aro ERE viability, CellTiter-Fluor, 24 h; series mostly up to 70.3 µM
Results filed as inconclusive are left out. Calls of active or inactive are those of the source. The call rests on the fitted dose curve; in most records, active means well fitted cell-killing curve with a large enough effect in the repeat runs; inconclusive means weak or mixed curves, or effect the other way; inactive means no such curve, though single readings can be large or run the other way. Positions of bridges follow the written chain, without caps; N, C: chain ends. Non-standard residues stand in square brackets, D forms with d. Residues, ends and D or L forms follow the SMILES beside them. ξ: configuration not given here. *: point of attachment. d(aThr) = C[C@@H](O)[C@@H](N)C(=O)O; ξThr(3R) = C[C@@H](O)C(N)C(=O)O; X3 = CC[C@@H](C)CCCCC(=O)*; dDab = NCC[C@@H](N)C(=O)O
value.kind: outcome

Solved cases below.
CCCCCCCC(=O)CC[C@@H]1[C@@H](C/C=C\CCCC(=O)OC(C)C)[C@@H](O)C[C@H]1O; inactive
O=C[C@H](O)[C@@H](O)[C@H](O[C@H]1O[C@H](CO)[C@@H](O[C@H]2O[C@H](CO)[C@@H](O)[C@H](O)[C@H]2O)[C@H](O)[C@H]1O)[C@H](O)CO; inactive
CC(C)C(=O)OCC(=O)[C@@]12O[C@H](C3CCCCC3)O[C@@H]1C[C@H]1[C@@H]3CCC4=CC(=O)C=C[C@]4(C)[C@H]3[C@@H](O)C[C@@]12C; inactive
CC(C)(C)NC(=O)[C@H]1CC[C@H]2[C@@H]3CC=C4C=C(C(=O)O)CC[C@]4(C)[C@H]3CC[C@]12C; inactive
O=C(c1cc2ccccc2o1)N1CCN(Cc2ccccc2)CC1; inactive

Can you give me outcome for all of these, one by one?
1. COC(=O)CC[C@H](N)C(=O)O
2. NC(N)=NCC1COc2ccccc2O1 (centres undefined)
3. CC(C)(C)c1ccc(CN2CCN(C(c3ccccc3)c3ccc(Cl)cc3)CC2)cc1 (centres undefined)

Reply:
inactive
inactive
inactive

Can you give me outcome for all of these, one by one?
1. CCNC(=O)[C@@H]1CCCN1C(=O)[C@H](CCCN=C(N)N)NC(=O)[C@H](CC(C)C)NC(=O)[C@@H](CC(C)C)NC(=O)[C@H](Cc1ccc(O)cc1)NC(=O)[C@H](CO)NC(=O)[C@H](Cc1c[nH]c2ccccc12)NC(=O)[C@H](Cc1cnc[nH]1)NC(=O)[C@@H]1CCC(=O)N1
2. CC[C@@H](C)CCCCC(=O)N[C@H](CCN)C(=O)N[C@@H](C(=O)N[C@H](CCN)C(=O)N[C@@H]1CCNC(=O)C([C@@H](C)O)NC(=O)[C@@H](CCN)NC(=O)[C@@H](CCN)NC(=O)[C@@H](CC(C)C)NC(=O)[C@@H](Cc2ccccc2)NC(=O)[C@@H](CCN)NC1=O)[C@@H](C)O (stereo partly drawn) (X3-[dDab][d(aThr)][dDab][dDab][dDab][dF][dL][dDab][dDab][ξThr(3R)]; lactam 4-C)
3. OCCO[C@@H]1[C@@H](O)[C@H](O)[C@@H](CO)O[C@@H]1O
4. O.O=C([O-])CC([S-])C(=O)[O-].[Au+].[Na+].[Na+] (centres undefined)
5. CC(=O)N(CC(C)C(=O)O)c1c(I)cc(I)c(N)c1I (centres undefined)

Reply:
["inactive", "inactive", "inactive", "inactive", "inactive"]

Query: Name the recorded outcome of the molecule listed here: "O=[N+]([O-])c1ccc(Oc2ccc(N=C=S)cc2)cc1"
Reply: inactive
